# Measured on: recombinant human KLK5 (human) (UniProt Q9Y337)
# Sequence (Q9Y337 67-293): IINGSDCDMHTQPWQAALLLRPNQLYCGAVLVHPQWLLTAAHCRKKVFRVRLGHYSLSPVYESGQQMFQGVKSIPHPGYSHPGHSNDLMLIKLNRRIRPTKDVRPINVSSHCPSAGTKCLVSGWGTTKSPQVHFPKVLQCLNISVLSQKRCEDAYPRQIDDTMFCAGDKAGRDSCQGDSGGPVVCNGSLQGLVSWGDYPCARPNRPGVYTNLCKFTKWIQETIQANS
# Test name: direct activity assay, 5 nM KLK5, Boc-VPR-AMC
Measurement kind: IC50 (nM)
Write it as a number; the unit nM goes unstated.

Solved entries:
[[record]]
binder = "2-3F4 (antibody, V domains shown) VH: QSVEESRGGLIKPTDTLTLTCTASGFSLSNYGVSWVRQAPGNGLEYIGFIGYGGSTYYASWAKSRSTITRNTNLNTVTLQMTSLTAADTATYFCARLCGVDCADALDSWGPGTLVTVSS VL: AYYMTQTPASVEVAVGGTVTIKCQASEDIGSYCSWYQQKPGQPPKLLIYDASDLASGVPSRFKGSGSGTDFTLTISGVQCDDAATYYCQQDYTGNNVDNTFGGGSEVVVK"
result_number = 1.02

[[record]]
binder = "2B11 (antibody, V domains shown) VH: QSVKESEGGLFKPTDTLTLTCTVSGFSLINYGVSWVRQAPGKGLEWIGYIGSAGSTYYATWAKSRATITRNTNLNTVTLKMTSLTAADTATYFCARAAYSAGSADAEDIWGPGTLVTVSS VL: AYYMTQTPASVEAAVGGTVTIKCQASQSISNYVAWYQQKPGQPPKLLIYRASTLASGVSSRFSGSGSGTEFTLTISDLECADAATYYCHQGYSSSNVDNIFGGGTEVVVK"
result_number = 1.29

[[record]]
binder = "9H3 (antibody, V domains shown) VH: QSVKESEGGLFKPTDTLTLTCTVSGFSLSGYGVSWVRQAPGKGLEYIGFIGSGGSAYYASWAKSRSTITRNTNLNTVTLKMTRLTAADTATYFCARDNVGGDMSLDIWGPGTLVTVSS VL: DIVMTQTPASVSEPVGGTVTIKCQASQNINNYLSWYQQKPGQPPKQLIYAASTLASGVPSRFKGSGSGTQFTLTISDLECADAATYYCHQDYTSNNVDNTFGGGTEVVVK"
result_number = 1.08

[[record]]
binder = "9B6 (antibody, V domains shown) VH: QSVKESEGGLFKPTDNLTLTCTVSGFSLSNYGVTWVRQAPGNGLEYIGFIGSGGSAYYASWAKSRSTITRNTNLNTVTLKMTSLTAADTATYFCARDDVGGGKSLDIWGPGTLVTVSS VL: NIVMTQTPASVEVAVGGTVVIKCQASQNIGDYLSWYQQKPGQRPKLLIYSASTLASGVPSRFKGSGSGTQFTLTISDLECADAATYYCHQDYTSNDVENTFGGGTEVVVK"
result_number = 1.17


Continue with the next binder.
# input binder: 8B7 (antibody, V domains shown) VH: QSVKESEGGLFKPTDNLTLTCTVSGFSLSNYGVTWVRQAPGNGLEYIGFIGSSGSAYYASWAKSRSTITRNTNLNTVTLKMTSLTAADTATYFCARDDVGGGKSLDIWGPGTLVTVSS VL: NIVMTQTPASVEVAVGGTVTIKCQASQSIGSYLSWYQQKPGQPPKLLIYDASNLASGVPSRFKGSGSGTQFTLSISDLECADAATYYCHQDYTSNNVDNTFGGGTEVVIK ; wanted: its IC50
1.1
